- target-entity: Recombinant human his-tagged IGF R extracellular domain protein (human) (UniProt P08069)
- assay-overview: SPR, Ab captured via anti-huIgG Fc, dissociation at pH 6
Would you mind telling me the reported koff of each entry?

## Input Which koff value belongs to VRDN-02027 (antibody, V domains shown) VH: QVQLQESGPGLVKPSETLSLTCTVSGYSITGGYLWNWIRQPPGKGLEWIGYISYDGTNNYKPSLKDRVTISRDTSKNQFSLKLSSVTAADTAVYYCARYGRVFFHYWGQGTLVTVSS VL: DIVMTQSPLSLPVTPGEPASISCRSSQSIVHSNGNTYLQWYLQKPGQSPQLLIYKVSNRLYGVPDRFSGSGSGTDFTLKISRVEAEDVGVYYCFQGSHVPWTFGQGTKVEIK ?
## Output 0.000121 s⁻¹

## Input Which koff value belongs to VRDN-02006 (antibody, V domains shown) VH: QVQLQESGPGLVKPSETLSLTCTVSGYSITHGYLWNWIRQPPGKGLEWIGYISYDGTNNYKPSLKDRVTISRDTSKNQFSLKLSSVTAADTAVYYCARYGRVFFDYWGQGTLVTVSS VL: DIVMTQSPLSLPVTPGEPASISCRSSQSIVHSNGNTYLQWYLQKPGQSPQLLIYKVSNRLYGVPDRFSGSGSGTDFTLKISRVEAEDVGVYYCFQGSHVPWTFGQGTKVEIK ?
## Output 0.000101 s⁻¹
